Value source: patent US20050222400

I'd appreciate it if you could supply pIC50 values for the items below.
- System: HIV-1 reverse transcriptase (RT) (HIV-1, UniProt P04585;P04585 P04585:588-1147,P04585:588-1027)
- Test Protocol: inhibition; RT activity, 80 mM KCl, 6 mM MgCl2, pH 8.0, 37 C
Answers are plain numbers, as −log10 of the molar value.

Binder: aptamer 80.55,65 (ssRNA) RNA: AGCUCGAGCUCGAAUUCAUUUAAUUCCAUAAUGGCUCACCACAAGGGGAACGUUGAUGAAAUAGGGCCCGGAUCCGUC
pIC50: 6.84
//
Binder: aptamer 70.28t34 (ssRNA) RNA: AGCUCGAGCUCGAAUUCGGGAACCGGACGGGUGAGAACCGAGACAAACACCGGGCCCGGAUCCGUC
pIC50: 6.49
//
Binder: aptamer 70.15 (ssRNA) RNA: AGCUCGAGCUCGAAUUCCCUACGAACCCAGGAGAUAAGGGGGAAAACUCUGGAAAACGGGCCCGGAUCCGUC
pIC50: 6.80

Moving on to the next binder.
Query :: // pIC50 lookup, key: aptamer 1.1 (ssRNA) RNA: AGCUCGAGCUCGAAUUCGGGAGAUUCCGUUUUCAGUCCGGGAAAAACUGAAGGGCCCGGAUCCGUC
Result :: 6.22
